The values you see were collected from patent US4874856A.

Test: Mouse blood levels after oral administration (Table 2)
Format: in vivo
Details: mouse, in vivo, 100 mg/kg

# compound, AUC / ng·h/mL
records = [
    ("C/C=C\\C1=C(C(=O)OC(C)OC(C)=O)N2C(=O)[C@@H](NC(=O)/C(=N\\OC(C)=O)c3csc(N)n3)[C@H]2SC1 (stereo partly drawn) [Compound 55]", 40000),
    ("C/C=C\\C1=C(C(=O)OC(C)OC(C)=O)N2C(=O)[C@@H](NC(=O)/C(=N\\O)c3csc(N)n3)[C@H]2SC1 (stereo partly drawn) [Compound 30]", 61000),
    ("N[C@@H](C(=O)N[C@@H]1C(=O)N2C(C(=O)O)=C(Cl)CS[C@H]12)c1ccccc1 [Cefaclor, reference compound]", 35000),
]

###

Test system: CETresistant E. coli (3) and K. pneumoniae (2)
Test: In vitro MIC, two-fold serial agar dilution in Mueller-Hinton agar, GnIb strains
Type: cell-based
Conditions: Escherichia coli, 5 strains, read-out: Geometric mean of MIC, GnIb
Attribute: MIC

# compound, MIC, µg/mL
measured = [
    ("C/C=C\\C1=C(C(=O)O)N2C(=O)[C@@H](NC(=O)/C(=N\\OC(C)=O)c3csc(N)n3)[C@H]2SC1", 0.26),
    ("N[C@@H](C(=O)N[C@@H]1C(=O)N2C(C(=O)O)=C(Cl)CS[C@H]12)c1ccccc1 [Cefaclor, reference compound]", 11),
    ("CC(=O)OC/C=C\\C1=C(C(=O)O)N2C(=O)[C@@H](NC(=O)/C(=N\\O)c3csc(N)n3)[C@H]2SC1", 0.1),
    ("C/C=C/C1=C(C(=O)O)N2C(=O)[C@@H](NC(=O)/C(=N\\O)c3csc(N)n3)[C@H]2SC1", 1.4),
    ("C=CC1=C(C(=O)O)N2C(=O)[C@@H](NC(=O)/C(=N\\OCC(=O)O)c3csc(N)n3)[C@H]2SC1", 3.1),
    ("CC1=C(C(=O)O)N2C(=O)[C@@H](NC(=O)[C@H](N)c3ccc(O)cc3)[C@H]2SC1 [Cefadroxil, reference compound]", 17),
    ("C/C=C\\C1=C(C(=O)O)N2C(=O)[C@@H](NC(=O)/C(=N\\O)c3csc(N)n3)[C@H]2SC1", 0.35),
]

###

Attribute: Cmax
Experiment: Mouse blood levels after oral administration (Table 2)
Type: in vivo
Details: mouse blood, 100 mg/kg, read-out: Cmax
quantity_measured: Cmax (ng/mL)

# molecule, quantity_measured, reported
data = [
    ("C=CC1=C(C(=O)O)N2C(=O)[C@@H](NC(=O)/C(=N\\OCC(=O)O)c3csc(N)n3)[C@H]2SC1", "Cmax", 28000),
    ("CC1=C(C(=O)O)N2C(=O)[C@@H](NC(=O)[C@H](N)c3ccc(O)cc3)[C@H]2SC1 [Cefadroxil, reference compound]", "Cmax", 57000),
]

###

Attribute: Cmax
Assay: Mouse blood levels after oral administration (Table 2)
Assay type: in vivo
Details: mouse, in vivo, 20 mg/kg

# compound, Cmax (ng/mL)
rows = [
    ("C/C=C\\C1=C(C(=O)OC(C)OC(C)=O)N2C(=O)[C@@H](NC(=O)/C(=N\\O)c3csc(N)n3)[C@H]2SC1 (some centres unmarked)", 9900),
    ("C/C=C\\C1=C(C(=O)OC(C)OC(C)=O)N2C(=O)[C@@H](NC(=O)/C(=N\\OC(C)=O)c3csc(N)n3)[C@H]2SC1 (some centres unmarked)", 7600),
]
